Assay: Parallel artificial membrane permeability assay (PAMPA)
Settings: replicate n2, calculation section; 10µM, PBS pH 7.4/7.4, 6h
Method: Solutions of the compounds were prepared in duplicate by diluting the stock solutions (10 mM) in phosphate buffered saline (PBS) pH 7.4 at a final concentration of 10 μM (5% DMSO). The solutions diluted in PBS pH 7.4 were then added to the donor portion of the plate (300 μL/well), while in the acceptor portion PBS pH 7.4 (200 μL/well) was added. […] The final concentrations of compounds in the donor, acceptor and T0 wells were quantified by LC-MS/MS.
Collected LogPe (cm/sec) n2 values appear next to each entry.
READOUT_TYPE: LogPe (cm/sec) n2

SMI	READOUT_TYPE	UNIT_ANNOTATION	RECORDED_RESULT
O=C1NC(=O)C(=Cc2ccc(-c3ccccc3F)[nH]2)C(=O)N1	LogPe (cm/sec) n2	cm/sec	-5.70
COc1cc(C=C2C(=O)NC(=O)NC2=O)ccc1O	LogPe (cm/sec) n2	cm/sec	-6.00
O=C1NC(=O)C(=Cc2ccc(N3CCOCC3)cc2[N+](=O)[O-])C(=O)N1	LogPe (cm/sec) n2	cm/sec	-9.37
O=C1NC(=O)C(=C/C=C/c2ccccc2)C(=O)N1	LogPe (cm/sec) n2	cm/sec	-5.23

* * *

Molecular target: LbDHODH (Leishmania braziliensis, UniProt E9AI53)
Sequence (E9AI53 entry or part of it): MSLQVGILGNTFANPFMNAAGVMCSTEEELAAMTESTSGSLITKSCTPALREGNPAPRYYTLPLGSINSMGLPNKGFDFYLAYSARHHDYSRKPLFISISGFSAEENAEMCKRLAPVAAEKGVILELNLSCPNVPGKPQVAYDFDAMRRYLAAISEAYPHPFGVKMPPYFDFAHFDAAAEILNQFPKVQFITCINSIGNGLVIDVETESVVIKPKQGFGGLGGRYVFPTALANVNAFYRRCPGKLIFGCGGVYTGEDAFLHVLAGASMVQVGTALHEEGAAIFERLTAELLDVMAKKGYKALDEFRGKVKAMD
Assay: biochemical
Conditions: 4 h, pH 8.15, read-out: LbDHODH Activity±SD (%)
Method: To assess the ability of compounds 2a–2i to inhibit LbDHODH via covalent bond formation with Cys^131, we initially screened them at a concentration of 100 μM under two conditions: with and without a 4-h preincubation with the enzyme. The experiments were performed in a 96-well microplate reader (SpectraMax Plus 384, Molecular Devices, USA), containing the […] of the buffer 60 mM DCIP, 50 mM Tris pH 8.15, 150 mM KCl, 0.1% Triton X-100, 50 μM DHO and 10 μM of LbDHODH at 165 nM. […]
Here, each record is paired with measured activity at 3.125 µM data.

SMI	ASSAY_TARGET	activity at 3.125 µM
O=C1NC(=O)C(=Cc2ccc(O)c([N+](=O)[O-])c2)C(=O)N1	LbDHODH (Leishmania braziliensis, UniProt E9AI53)	71%
O=C1NC(=O)C(=Cc2ccc(-c3ccccc3)cc2)C(=O)N1	LbDHODH (Leishmania braziliensis, UniProt E9AI53)	73.6%
O=C1NC(=O)C(=Cc2ccc(C(=O)O)cc2)C(=O)N1	LbDHODH (Leishmania braziliensis, UniProt E9AI53)	90%
O=C1NC(=O)C(=Cc2ccccc2)C(=O)N1	LbDHODH (Leishmania braziliensis, UniProt E9AI53)	74%
COc1cc(C=C2C(=O)NC(=O)NC2=O)ccc1O	LbDHODH (Leishmania braziliensis, UniProt E9AI53)	90%
O=C1NC(=O)C(=Cc2cccc(O)c2)C(=O)N1	LbDHODH (Leishmania braziliensis, UniProt E9AI53)	77%
O=C1NC(=O)C(=C/C=C/c2ccccc2)C(=O)N1	LbDHODH (Leishmania braziliensis, UniProt E9AI53)	10%
O=C1NC(=O)C(=Cc2ccc(N3CCOCC3)cc2[N+](=O)[O-])C(=O)N1	LbDHODH (Leishmania braziliensis, UniProt E9AI53)	87%
